tested on: crabgrass; test: Test B pre/postemergence crabgrass; assay type: in vivo, Digitaria sanguinalis; conditions: Postemergence, Rate 125 g/ha; scale 0 to 10, 0 is no effect, 10 is complete control

compound	targetUnderTest	Plant response rating, Crabgrass
CC(C)N(C(=O)n1oc(=O)n(C2CCC2)c1=O)c1ccc(Cl)cc1	crabgrass	0
CC(C)N(C(=O)n1oc(=O)n(C2CCCCCC2)c1=O)c1ccc(Cl)cc1	crabgrass	0
CC(C)N(C(=O)n1oc(=O)n(-c2ccc3ccccc3c2)c1=O)c1ccc(F)cc1F	crabgrass	0
CC(C)N(C(=O)n1oc(=O)n(C(C)CCl)c1=O)c1ccc(F)cc1F (centres unmarked)	crabgrass	4
CC(C)N(C(=O)n1oc(=O)n(C2CC3CCC2C3)c1=O)c1ccc(F)cc1F (centres unmarked)	crabgrass	0

====

Measured Plant response rating, Velvetleaf values are reported for all entries that follow.
Tested on: velvetleaf
Assay: Test B pre/postemergence velvetleaf
Assay type: in vivo, Abutilon theophrasti
Settings: Rate 500 g/ha, Postemergence; scale 0 to 10, 0 no effect, 10 complete control
Protocol: […] At the same time, these crop and weed species were also treated with postemergence applications of test chemicals formulated in the same manner. […] Treated plants and controls were maintained in a greenhouse for twelve to sixteen days, after which all species were compared to controls and visually evaluated. […]

smilesString	Plant response rating, Velvetleaf
CC(C)N(C(=O)n1oc(=O)n(C2CCC2)c1=O)c1ccccc1	6
CC(C)N(C(=O)n1oc(=O)n(C2CCC2)c1=O)c1ccc(Cl)cc1	0
Cc1c(-n2c(=O)on(C(=O)N(c3ccc(F)cc3F)C(C)C)c2=O)ccc2ccccc12	0
Cc1nsc(Cl)c1Cn1c(=O)on(C(=O)N(c2ccc(F)cc2)C(C)C)c1=O	2

====

test system: purple nutsedge; assay: Test B pre/postemergence purple nutsedge; format: in vivo, Cyperus rotundus; settings: Rate 62 g/ha, Postemergence; scale 0 to 10 (0 no effect, 10 complete control)
Recorded Nutsedge plant response rating by entry
measuredQuantity: Nutsedge plant response rating

molecule	targetUnderTest	valueObserved
COCC(OC)n1c(=O)on(C(=O)N(c2ccc(F)cc2)C(C)C)c1=O (stereo not drawn)	purple nutsedge	0
CC(C)N(C(=O)n1oc(=O)n(C(C)C(=O)N(C)C)c1=O)c1ccc(Cl)cc1 (stereo not drawn)	purple nutsedge	0
CC(C)N(C(=O)n1oc(=O)n(CC2=NOCCC2)c1=O)c1ccc(Cl)cc1	purple nutsedge	0

====

tested on: wild oat; assay: Test B pre/postemergence wild oat; format: in vivo, Avena fatua; details: Postemergence, Rate 1000 g/ha; scale 0 to 10 (0 no effect, 10 complete control)
molecules and their reported Wild oats plant response rating
measuredQuantity: Wild oats plant response rating

molecule	measuredQuantity	valueObserved
C=CCn1c(=O)on(C(=O)N(c2ccc(F)cc2)C(C)C(=O)OCC)c1=O (stereo not shown) [Compound 279]	Wild oats plant response rating	0
CC(C)N(C(=O)n1oc(=O)n(-c2ccc(OC(F)(F)F)cc2)c1=O)C1=CCOCC1 [Compound 13]	Wild oats plant response rating	2
CC(C)N(C(=O)n1oc(=O)n(C2CCCCC2C(F)(F)F)c1=O)c1ccc(F)cc1 (stereo not shown) [Compound 99]	Wild oats plant response rating	3
Cc1ccccc1-n1c(=O)on(C(=O)N(c2ccc(F)cc2)C(C)C)c1=O [Compound 4]	Wild oats plant response rating	0

====

tested on: wheat; assay: Test B pre/postemergence wheat; assay type: in vivo, Triticum aestivum; conditions: Rate 500 g/ha, Preemergence; scale 0 to 10 (0 no effect, 10 complete control)
Readings of Wheat plant response rating for the listed compounds
measuredQuantity: Wheat plant response rating

compound	measuredQuantity	valueObserved
COP(=O)(CCn1c(=O)on(C(=O)N(c2ccc(F)cc2F)C(C)C)c1=O)OC	Wheat plant response rating	9
CC(C)N(C(=O)n1oc(=O)n(CCC(=O)N(C)C)c1=O)c1ccc(Cl)cc1	Wheat plant response rating	5
CCOC(CC)n1c(=O)on(C(=O)N(c2ccc(Cl)cc2)C(C)C)c1=O (centres unmarked)	Wheat plant response rating	0
CCC(C)n1c(=O)on(C(=O)N(c2ccc(F)cc2)C(C)C)c1=O (centres unmarked)	Wheat plant response rating	10
C#CCn1c(=O)on(C(=O)N(c2ccc(F)cc2)C(C)C)c1=O	Wheat plant response rating	5

====

system: wheat; assay: Test B pre/postemergence wheat; assay type: in vivo, Triticum aestivum; settings: Rate 250 g/ha; Postemergence
measuredQuantity: Plant response rating (0 to 10; 0 is no effect, 10 is complete control), Wheat

smilesString	valueObserved
Cc1ccccc1-n1c(=O)on(C(=O)N(c2ccc(Cl)cc2F)C(C)C)c1=O	0
CCC(CC)N(C(=O)n1oc(=O)n(-c2ccccc2C)c1=O)c1ccc(F)cc1	0
CC(C)N(C(=O)n1oc(=O)n(Cc2ccco2)c1=O)c1ccc(F)cc1	0
COc1nc(OC)nc(N(C(=O)n2oc(=O)n(C(C)C)c2=O)C(C)C)n1	0
CC(C)N(C(=O)n1oc(=O)n(CC2(C)COC2)c1=O)c1ccc(F)cc1	7
CC(C)N(C(=O)n1oc(=O)n(CCC(F)=C(F)F)c1=O)c1ccc(F)cc1	0

====

system: Green foxtail; assay: Test D green foxtail; assay type: in vivo; conditions: Preemergence; Rate 16 g/ha; 0 to 100 scale, 0 no injury, 100 complete control

smilesString	targetUnderTest	Plant response rating, Green foxtail
Cc1cccc(C)c1-n1c(=O)on(C(=O)N(c2ccccc2)C(C)C)c1=O	Green foxtail	0
CCn1c(=O)on(C(=O)N(c2ccc(Cl)cc2)C(C)C)c1=O	Green foxtail	40
C=CCn1c(=O)on(C(=O)N(c2ccccc2)C(C)C)c1=O	Green foxtail	65
CCCn1c(=O)on(C(=O)N(c2ccc(Cl)cc2)C(C)C)c1=O	Green foxtail	10

====

// reported Plant response rating, Redroot pigweed for each item listed
test system: pigweed; assay: Test B pre/postemergence pigweed; assay type: in vivo, Amaranthus retroflexus; conditions: Preemergence, Rate 500 g/ha; scale of 0 to 10 where 0 is no effect and 10 is complete control

compound	targetUnderTest	Plant response rating, Redroot pigweed
CC(=O)OCC(CCl)n1c(=O)on(C(=O)N(c2ccc(F)cc2)C(C)C)c1=O (stereo not shown) [Compound 596]	pigweed	0
CCOC(Cn1c(=O)on(C(=O)N(c2ccccc2)C(C)C)c1=O)OCC [Compound 632]	pigweed	10
CC(C)N(C(=O)n1oc(=O)n(Cc2ccco2)c1=O)c1ccc(F)cc1 [Compound 207]	pigweed	8
CC(C)N(C(=O)n1oc(=O)n(C2CC2)c1=O)c1ccc(Cl)cc1 [Compound 241]	pigweed	10
Cc1ccccc1-n1c(=O)on(C(=O)N(c2ccc(Cl)cc2F)C(C)C)c1=O [Compound 195]	pigweed	0
CC(C)N(C(=O)n1oc(=O)n(CC2=NOCCC2)c1=O)c1ccc(F)cc1 [Compound 601]	pigweed	10
CC(C)N(C(=O)n1oc(=O)n(CCCC#N)c1=O)c1ccc(F)cc1 [Compound 647]	pigweed	10
CCCCCC#CCn1c(=O)on(C(=O)N(c2ccc(F)cc2)C(C)C)c1=O [Compound 254]	pigweed	0
Cc1ccccc1-n1c(=O)on(C(=O)N(c2ccc(C(C)(C)C)cc2)C(C)C)c1=O [Compound 270]	pigweed	0
CC(C)N(C(=O)n1oc(=O)n(CC2CCCCO2)c1=O)c1ccc(F)cc1 (stereo not shown) [Compound 624]	pigweed	10
Cc1ccccc1-n1c(=O)on(C(=O)N(c2ccc(N(C)C)cc2)C(C)C)c1=O [Compound 237]	pigweed	0
Cc1ccccc1-n1c(=O)on(C(=O)N(c2ccc(F)cc2)C(C)C2CC2)c1=O (stereo not shown) [Compound 240]	pigweed	0
CC(C)N(C(=O)n1oc(=O)n(C(C)C(=O)c2ccccc2)c1=O)c1ccc(F)cc1 (stereo not shown) [Compound 260]	pigweed	4
CC(C)N(C(=O)n1oc(=O)n(CC2(C)COC2)c1=O)c1ccc(F)cc1 [Compound 226]	pigweed	9
CC(C)N(C(=O)n1oc(=O)n(CC(=O)OC(C)(C)C)c1=O)c1ccc(F)cc1 [Compound 265]	pigweed	0
CC(C)N(C(=O)n1oc(=O)n(CC(C)[N+](=O)[O-])c1=O)c1ccccc1 (stereo not shown) [Compound 604]	pigweed	0

====

Catalogue of Plant response rating, B. signalgrass values
Test system: surinam grass
Test: Test B pre/postemergence surinam grass
Assay type: in vivo, Brachiaria decumbens
Details: Preemergence, Rate 125 g/ha; scale of 0 to 10 where 0 is no effect and 10 is complete control
Method: […] At the same time, these crop and weed species were also treated with postemergence applications of test chemicals formulated in the same manner. […] Treated plants and controls were maintained in a greenhouse for twelve to sixteen days, after which all species were compared to controls and visually evaluated. […]

molecule	targetUnderTest	Plant response rating, B. signalgrass
COCC(OC)n1c(=O)on(C(=O)N(c2ccc(F)cc2)C(C)C)c1=O (stereo not shown) [Compound 446]	surinam grass	6
CC(C)N(C(=O)n1oc(=O)n(C(C)C2CCC2)c1=O)c1ccc(Cl)cc1 (stereo not shown) [Compound 701]	surinam grass	0
C#CCn1c(=O)on(C(=O)N(c2ccc(F)cc2)C(C)C)c1=O [Compound 743]	surinam grass	3
CCOC(=O)CC(C(=O)OCC)n1c(=O)on(C(=O)N(c2ccc(F)cc2F)C(C)C)c1=O (stereo not shown) [Compound 465]	surinam grass	2
COCC(OC)n1c(=O)on(C(=O)N(c2ccc(Cl)cc2)C(C)C)c1=O (stereo not shown) [Compound 726]	surinam grass	7
CC(C)N(C(=O)n1oc(=O)n(C(C)C(=S)N(C)C)c1=O)c1ccc(F)cc1 (stereo not shown) [Compound 728]	surinam grass	8
CC(C)N(C(=O)n1oc(=O)n(C(CCl)CCl)c1=O)c1ccc(F)cc1 [Compound 672]	surinam grass	4
CCn1ncc(Cn2c(=O)on(C(=O)N(c3ccc(F)cc3)C(C)C)c2=O)c1Cl [Compound 686]	surinam grass	5
CC(C)N(C(=O)n1oc(=O)n(C(C)C(=O)N(C)C)c1=O)c1ccc(Cl)cc1 (stereo not shown) [Compound 480]	surinam grass	4
CC(C)Cn1c(=O)on(C(=O)N(c2ccc(Cl)cc2)C(C)C)c1=O [Compound 417]	surinam grass	3
